tested on: MILI (PIWIL2) piRISC loaded with L1MC piRNA (26 nt); assay: pre-steady-state target cleavage rate (min^-1); guide: L1MC piRNA 5'p-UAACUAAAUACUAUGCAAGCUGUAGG; higher = faster piRNA-guided slicing of the target; conditions: auxiliary factor: none (no GTSF1);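 further: 1 nM active piRISC with 0.1 nM target library at 33 °C single turnover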
Outcome label depends on pre-steady-state target cleavage rate relative to 0.006: at/above gives t, below gives f.

INSERT INTO results (biopolymer_sequence, assigned_class) VALUES
  ('UCCUGGAUGAGCUUGCAUAGUAUUUUGUUA', 'f'),
  ('UCCUGGAUGAUCUUGCAUAGUAUUUAGUUA', 't'),
  ('UCCUGGUACAGCUUGCAUAGUAUUUAGUUUA', 't'),
  ('UCCUGGAUGUCGUUGCAUAGUAUUGAGUUA', 'f'),
  ('UCCUGGAACAUCUUGCAUAGUAUUUAGUUA', 't'),
  ('UCCUGGAUGAGCUUGCAUAGUAUUUACGUUA', 't'),
  ('UCCUGGUACAGCAAGCAUAGUAUUUAGUAA', 'f'),
  ('UCCUGGAUGAGCUUGCAUAGUAUUGAGUUA', 'f'),
  ('UCCUGGAUGUGCUUGCAUAGUUAUUAGUUA', 't'),
  ('UCCUGCUACAGCAUGCAAAGUAUUUAGUUA', 't'),
  ('UCCUGGAUCAGCUUGCAAAGUAUAUAGUUA', 't'),
  ('UCCUCCAACAGCAUGCAUAGUAUUUAGUUA', 't'),
  ('UCCUGGUAGAGCUUGCAUAGUAUUUAGUAA', 't'),
  ('UCCUCCUACAGCUUGCAUAGUAUUAUGUUA', 'f'),
  ('UCCUGGAACAGCUUGGCAUAGUAUUUAGUUA', 't'),
  ('UCCUGGUACAGCAUGCAAAGUAUUUAGUUA', 't'),
  ('UCCUGGAUCAGCAUGCAUAGUAUUUAGUAA', 'f'),
  ('UCCUCCUAGAGCUUGCAUAGUAAUUAGUUA', 'f'),
  ('UCCUGGAACAGCUUGCAUCGUAUUUAGUUA', 't'),
  ('UCCUGCUACAGCUAGCUUAGUAUUUAGUUA', 'f'),
  ('UCCUGCUACAGCUUGGAUAGUAUUUAGUAA', 'f'),
  ('UCCUGCAACAGCUUGCUUAGUAUUUAGUUA', 't'),
  ('UCCUGGAUGAGCUAGCAUACUAUUUAGUUA', 'f'),
  ('UCCUGGUACAGCUUGCAUAGUAUUUGGUUA', 't');

* * *

test system: MILI (PIWIL2) piRISC loaded with L1MC piRNA (26 nt); experiment: pre-steady-state target cleavage rate (min^-1); guide: L1MC piRNA 5'p-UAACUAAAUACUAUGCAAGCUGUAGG; MIWI and MILI are mouse PIWI proteins and EfPiwi is from a freshwater sponge; tags in brackets are library labels; higher = faster piRNA-guided slicing of the target; details: auxiliary factor: none (no GTSF1);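 further: 1 nM active piRISC with 0.1 nM target library at 33 °C single turnover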
pre-steady-state target cleavage rate by entry:
measured quantity: pre-steady-state target cleavage rate

INSERT INTO results (biopolymer_sequence, operator_symbol, numeric_value) VALUES
  ('UCCUGGUACCGCUUGCAUAGUAUUUAGUUA', '=', 0.0123),
  ('UCCUGGAUCAGCUUGCAUAGUGAUUUAGUUA', '=', 0.00404),
  ('UCCUGGUAGACCUUGCAUAGUAUUUAGUUA', '=', 0.00488),
  ('UCCUGGAUGAGCUUGCGUAGUAUUUAGUUA', '=', 0.0108),
  ('UCCUGCAACAGCUUGGAUAGUAUUUAGUUA', '=', 0.00806),
  ('UCCUGGAUGUCGAACGCUAGUAUUUAGUUA', '<', 0.0001),
  ('UCCUGCUACAGCUUGCAUUGAAUUUAGUUA', '=', 0.00353),
  ('UCCUGGAUGUCCUUGCAUAGUAUCUUAGUUA', '=', 0.00566),
  ('UCCUGGAUGAGCCUUGCAUAGUAUUUAGUUA', '=', 0.0071),
  ('UCCUGGUACAGCUUGCUAUGUAUUUAGUUA', '=', 0.00465),
  ('UCCUCCUACACCAUGCAUAGUAUUUAGUUA', '=', 0.00814),
  ('UCCUACUACAGCUUGCAUAGUAUUUAGUUA', '=', 0.00883),
  ('UCCUGCUACAGGUUGCAUACUAUUUAGUUA', '=', 0.00412),
  ('UCCUGGAUGUCGAAGCAUACAUUUUAGUUA', '<', 0.0001),
  ('UCCUGGUACAGCUUGCAUAAUAUUUAGUUA', '=', 0.0064),
  ('UCCUUCUACAGCUUGCAUAGUAUUUAGUUA', '=', 0.0105),
  ('UCCUGGUACAUGCUUGCAUAGUAUUUAGUUA', '=', 0.00627),
  ('UCCUGGUACAGCUUGCAUAGUCUUUAGUUA', '=', 0.00831),
  ('UCCUGGAUGAGCUGUGCAUAGUAUUUAGUUA', '=', 0.0151),
  ('UCCUGGAUGUCCUUGCUUAGUUUUUAGUUA', '=', 0.00494),
  ('UCCUGGUACAGGUUGCAUAGUAAUUAGUUA', '=', 0.00664),
  ('UCCUGGAUGUCCUUGCAUACUAUUUAGUUA', '=', 0.00339),
  ('UCCUGGAUCAGCAUGCUUAGUAUUUAGUUA', '=', 0.00777),
  ('UCCUGGAUGUCCUUGCAUACAAUUUAGUUA', '=', 0.00248),
  ('UCCUGGAUGUCGAACGUAUCUAUUAAGUUA', '<', 0.0001),
  ('UCCUGGAUGUCCUUGCAUAGUACUUUAGUUA', '=', 0.00534),
  ('UCCUGCUACACCUUGCAUAGUUUUUAGUUA', '=', 0.00475),
  ('UCCUGGAUGACGCUUGCAUAGUAUUUAGUUA', '=', 0.00493),
  ('UCCUGGUACAGCUUGCUAGUAUUUAGUUA', '=', 0.00634),
  ('UCCUCGAACAGCUUGCAUAGUAUUUAGUUA', '=', 0.00922),
  ('UCCUGGAUGAGCUUGCAUAGUAUUUAUGUUA', '=', 0.00381),
  ('UCCUGCUUCUGCUUGCAUAGUAUUUAGUUA', '=', 0.00864),
  ('UCCUGGAUGUCCUUGGUUAGUAUUUAGUUA', '=', 0.00681),
  ('UCCUCCUACAGCUUCGAUAGUAUUUAGUUA', '=', 0.00534),
  ('UCCUGGAUGUCGAACGUUAGUAUUUUCAAA [g6:g13:cont:t1A]', '<', 0.0001),
  ('UCCUGGUACACCUUGCAUAGUUUUUAGUUA', '=', 0.00381),
  ('UCCUGGAUGUCGAUGCAUAGUAAUUAGUUA', '=', 0.00499),
  ('UCCUGCAACAGCAUGCAUAGUAUUUAGUUA', '=', 0.00926),
  ('UCCUGGAUGUCGAACGUGAGUAUUUAGUUA', '<', 0.0001),
  ('UCCUGGAUGAGCUUGCAUACAUUUUAGUUA', '=', 0.00358),
  ('UCCUGGAUGAGCUUACAUAGUAUUUAGUUA', '=', 0.00591),
  ('UCCUGGAUGUCGAACGUUAGUAUUUCGUUA', '<', 0.0001),
  ('UCCUGGAUGUGCUUGCAAAGUAUAUAGUUA', '=', 0.00311),
  ('UCCUCCUACAGCUAGCAUUGUAUUUAGUUA', '=', 0.00496),
  ('UCCUGGAUGUCGUUCGCAUAGUAUUUAGUUA', '=', 0.00567),
  ('UCCUGGUACAGCUUGCAUAGUAUAUUAGUUA', '=', 0.0117),
  ('UCCUGGAUCAGCUUGCAUAGUAUAAAGUUA', '=', 0.00561),
  ('UCCUGGAUGUCGAUGAUAGUAUUUAGUUA', '<', 0.0001),
  ('UCCUGCUACAGCUUGCUUAGUAUAUAGUUA', '=', 0.00313),
  ('UCCUGGAUGAGCAUGCAUAGUAAUUAGUUA', '=', 0.00824),
  ('UCCUGGAUCAGCAUGCAAAGUAUUUAGUUA', '=', 0.0074),
  ('UCCUCCUGCAGCUUGCAUAGUAUUUAGUUA', '=', 0.0088),
  ('UCCUGGUACAGCUUGCAUAGUAAAAAGUUA', '=', 0.00471),
  ('UCCUGGUACAGCAACCAUAGUAUUUAGUAA', '=', 0.00382),
  ('UCCUGGAUGUCGAUGCAUAGUAAUUUAGUUA', '=', 0.00496);
